This section presents pIC50 values reported for Coagulation factor X (Homo sapiens) in the literature.
Lab note: report pIC50 as minus log10 of the concentration in molar units, number only.

Query: Hi! What's the reported pIC50 for CC(=N)N1CCC(Oc2ccc3c(c2)N(Cc2ccc4ccc(C(=N)N)cc4c2)C(=O)CO3)CC1 on Coagulation factor X (Homo sapiens)?
Result: 6.72

Query: Hi! What's the reported pIC50 for CCCC[C@@H](NC(=O)Nc1ccccc1)C(=O)Nc1ccc(-c2ccccc2S(C)(=O)=O)cc1 on Coagulation factor X (Homo sapiens)?
Result: 5.52

Query: Hi! What's the reported pIC50 for CON=C1CCCCN1c1ccc(NC(=O)[C@H](OC(=O)Nc2ccc(Cl)cc2)c2ccccc2)cc1 on Coagulation factor X (Homo sapiens)?
Result: 6.66
